- assay system: TYK2 (Homo sapiens, UniProt P29597)
- Construct: JAK1 (aa 850-1154) and TYK2 (aa 871-1187) are expressed with an N-terminally fused GST-tag; GST (N)
- Sequence (P29597 871-1187): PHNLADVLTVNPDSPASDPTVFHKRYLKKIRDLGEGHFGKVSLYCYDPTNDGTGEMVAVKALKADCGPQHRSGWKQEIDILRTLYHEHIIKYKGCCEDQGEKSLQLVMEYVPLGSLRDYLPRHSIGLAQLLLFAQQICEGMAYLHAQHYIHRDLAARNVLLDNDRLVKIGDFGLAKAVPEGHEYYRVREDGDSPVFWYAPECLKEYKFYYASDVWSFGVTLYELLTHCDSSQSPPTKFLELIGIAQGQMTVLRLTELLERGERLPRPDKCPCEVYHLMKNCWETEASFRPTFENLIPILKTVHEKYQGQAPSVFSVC
- test: TYK2 kinase assay (HTRF, inhibition of phosphorylation of a synthetic peptide)
- settings: catalytic domain aa 871-1187, GST-tag; 13 μM ATP (Km); read-out: TYK2 kinase inhibitory activity (EC50)
- Description: JAK1, JAK2, JAK3 and TYK2 Kinase Assays: Human baculovirus-expressed JAK1, 2, 3 and TYK2 were purchased from Carna Biosciences, Inc. All four purified enzymes contain only the catalytic domain. […] Inhibition of phosphorylation of a synthetic peptide was measured in an HTRF-based assay using the TK substrate-Biotin from the CisbioHTRFKinEASE TK kit. […] The HTRF signal is read using an Envision plate reader.
Overview of recorded EC50 for various compounds

Example cases with answers are listed next.
compound="NS(=O)(=O)c1ccc(CCC(=O)N2CCN(c3ncnc4[nH]ccc34)CC3(CC3)C2)cc1 [Example 34]" reported_value="0.1 to 1 µM"
compound="O=C(c1cc2ccccc2s1)N1CCN(c2ncnc3[nH]ccc23)CCC12CC2 [Example 46]" reported_value="> 1 µM"
compound="N#CC1(C(=O)N2CCCN(c3ncnc4[nH]ccc34)CC23CC3)CC1 [Example 60]" reported_value="> 1 µM"

Q. What value of EC50 has been recorded for this entry: N#Cc1ccc(OCC(=O)N2CCN(c3ncnc4[nH]ccc34)CC3(CC3)C2)cc1 [Example 106]
A. 0.1 to 1 µM
